Molecular target: Human immunodeficiency virus type 1 integrase (Human immunodeficiency virus 1) (UniProt Q7ZJM1)
Sequence (Q7ZJM1 as listed by the source): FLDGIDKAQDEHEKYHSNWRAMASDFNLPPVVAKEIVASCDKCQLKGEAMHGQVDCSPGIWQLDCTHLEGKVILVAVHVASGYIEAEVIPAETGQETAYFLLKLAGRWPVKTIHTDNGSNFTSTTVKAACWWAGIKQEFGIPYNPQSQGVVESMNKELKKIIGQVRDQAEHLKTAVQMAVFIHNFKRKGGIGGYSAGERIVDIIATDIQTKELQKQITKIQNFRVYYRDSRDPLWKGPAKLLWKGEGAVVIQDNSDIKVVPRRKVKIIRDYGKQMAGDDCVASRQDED
Test: Inhibitory activity against strand transfer by HIV-1 Integrase at 100 uM
Measured attribute: inhibition

Examples from the recorded data:
# Compound, inhibition
data = [
    ("O=C1OC[C@H](Cc2ccc3c(c2)OCO3)[C@H]1Cc1cccc(O)c1", "< 5%"),
    ("COc1ccc(C[C@@H](CO)[C@@H](Cc2ccc(O)c(O)c2)C(=O)NCc2ccccc2)cc1OC", "< 5%"),
    ("COc1cc([C@@H]2c3cc4c(c(O)c3C[C@H]3COC(=O)[C@H]32)OCO4)cc(OC)c1OC", "< 5%"),
    ("COc1ccc(C[C@H]2COC(=O)[C@@H]2Cc2ccc(O)cc2)cc1OC", "< 5%"),
    ("COc1cc(C[C@@H](CO)[C@H](CO)Cc2ccc(OC)c(OC)c2)ccc1O", "< 5%"),
]

Consider COc1cc(C[C@H]2COC[C@@H]2Cc2ccc(O)c(OC)c2)ccc1O . Its measured inhibition is < 5%

Consider O=C1OC[C@H](Cc2ccc3c(c2)OCO3)[C@H]1Cc1ccc(O)cc1 . Its measured inhibition is < 5%

Consider O=C1OC[C@H](Cc2ccc(O)c(O)c2)[C@H]1Cc1ccc(O)c(O)c1 . Its measured inhibition is 100%

Consider COc1cc(C[C@@H](C(=O)NCc2ccccc2)[C@H](CO)Cc2ccc(OC)c(OC)c2)ccc1O . Its measured inhibition is < 5%

Consider COc1ccc(C[C@H]2COC(=O)[C@@H]2Cc2ccccc2)cc1OC . Its measured inhibition is < 5%

Consider O=C1OC[C@H](Cc2ccc3c(c2)OCO3)[C@H]1Cc1ccccc1 . Its measured inhibition is < 5%

Consider COc1cc([C@@H]2c3cc4c(cc3C(O)[C@H]3COC(=O)[C@H]23)OCO4)cc(O)c1O (stereo not given in full) . Its measured inhibition is < 5%

Consider COc1cc(C[C@H]2C(=O)OC[C@@H]2Cc2ccc(OC)c(OC)c2)ccc1O . Its measured inhibition is < 5%

Consider COc1cc([C@@H]2c3cc4c(cc3[C@H](O)[C@H]3COC(=O)[C@H]23)OCO4)cc(OC)c1O . Its measured inhibition is < 5%

----------
Molecular target: Human immunodeficiency virus type 1 integrase (Human immunodeficiency virus 1) (UniProt Q7ZJM1)
Assay: Inhibitory activity against strand transfer by HIV-1 Integrase at 100 uM
inhibition values, listed per item

# Smiles data, inhibition
rows = [
    ("COc1ccc(C[C@H]2COC(=O)[C@@H]2Cc2ccc(O)c(O)c2)cc1OC", "52%"),
]

Consider COc1cc(C[C@H]2C(=O)OC[C@@H]2Cc2ccc(O)c(O)c2)ccc1O . Its measured inhibition is 41%

Consider COc1ccc(C[C@H]2COC(=O)[C@@H]2Cc2cc(O)c(O)c(O)c2)cc1OC . Its measured inhibition is < 5%

----------
Target: UniProt:Q7ZJM1
Test: Inhibitory activity against strand transfer by HIV-1 Integrase at 100 uM
inhibition values, listed per item

Examples from the recorded data:
# Smiles data, Tested on, inhibition
data = [
    ("COc1ccc(C[C@H]2CCC(=O)[C@@H]2Cc2ccc(O)c(O)c2)cc1OC", "UniProt:Q7ZJM1", "< 5%"),
    ("COc1cc(C[C@H]2COC(=O)[C@@H]2Cc2ccc(O)c(OC)c2)ccc1O", "UniProt:Q7ZJM1", "< 5%"),
]

Consider COc1cc([C@@H]2c3cc4c(cc3[C@H](O)[C@H]3COC(=O)[C@@H]23)OCO4)cc(OC)c1O . Its measured inhibition is < 5%
